Reported ED50 values for the following compounds.
Test system: Ach
test_protocol: Konzett data, Ach
Type: in vivo
test_readout: ED50

> print(dat)
                                   compound  test.readout    observed
1  C=CC(O)(C/C=C/[C@H]1[C@H](O)CC(=O)[C@@H]1CCCCCCC(O)CO)CCCC (relative stereo)          ED50  20.1 mg/kg
2  CCCCC(C)(O)C/C=C/[C@H]1[C@H](O)CC(=O)[C@@H]1CCCCCCC(O)CO (relative stereo)          ED50  75.9 mg/kg
3  C=CC(O)(C/C=C/[C@H]1[C@H](O)CC(=O)[C@@H]1C/C=C\CCCC(O)CO)CCCC (relative stereo)          ED50  11.8 mg/kg
4  CCCCC(C)(O)C/C=C/[C@H]1[C@H](O)CC(=O)[C@@H]1C/C=C\CCCC(O)CO (relative stereo)          ED50   331 mg/kg
